- procedure_summary: Conjugation of anti-CD98 mAbs with Bcl-xL inhibitor synthons (precipitation, DAR, recovery, aggregation)
- particulars: mAb conjugated with Bcl-xL inhibitor synthon CZ, Method A
experimental_endpoint: DAR by MS

Ask | Any idea what its DAR by MS is? The molecule is huAb15v7 (antibody, V domains shown) VH: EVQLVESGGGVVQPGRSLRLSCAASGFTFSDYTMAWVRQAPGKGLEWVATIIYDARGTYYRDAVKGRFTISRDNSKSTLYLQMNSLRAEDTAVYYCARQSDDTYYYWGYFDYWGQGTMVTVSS VL: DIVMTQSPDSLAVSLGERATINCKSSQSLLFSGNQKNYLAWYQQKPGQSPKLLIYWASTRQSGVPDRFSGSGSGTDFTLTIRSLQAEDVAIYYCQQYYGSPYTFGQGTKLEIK
Reply | 2.2

Ask | Any idea what its DAR by MS is? The molecule is huAb15v5 (antibody, V domains shown) VH: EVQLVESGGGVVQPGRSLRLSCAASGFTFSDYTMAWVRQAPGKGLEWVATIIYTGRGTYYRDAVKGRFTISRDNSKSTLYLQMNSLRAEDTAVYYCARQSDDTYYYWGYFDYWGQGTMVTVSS VL: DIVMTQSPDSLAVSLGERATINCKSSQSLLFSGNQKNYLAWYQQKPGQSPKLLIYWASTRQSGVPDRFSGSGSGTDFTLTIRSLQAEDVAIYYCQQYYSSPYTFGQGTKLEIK
Reply | 1.0

Ask | Any idea what its DAR by MS is? The molecule is huAb15v3 (antibody, V domains shown) VH: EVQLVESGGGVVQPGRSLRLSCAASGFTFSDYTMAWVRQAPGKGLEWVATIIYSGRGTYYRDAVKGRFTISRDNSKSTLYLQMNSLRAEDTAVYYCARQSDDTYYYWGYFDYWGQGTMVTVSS VL: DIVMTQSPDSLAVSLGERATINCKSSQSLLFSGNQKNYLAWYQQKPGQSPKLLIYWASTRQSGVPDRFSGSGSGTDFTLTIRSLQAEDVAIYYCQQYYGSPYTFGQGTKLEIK
Reply | 1.2

These measurements were taken from patent US20230120736A1.
